Quick reference for EC50 of the fungicide among some compounds
Test system: Septoria tritici isolate G3-03
Test: Fungicide sensitivity testing by OD in 96 well plates, fungicides plus Enhancer A.I.1
Format: cell-based
Conditions: Enhancer A.I.1 Concentration 0.08 μg ml^−1

compound	units_symbol	relation_sign	EC50 of the fungicide
Cc1cc(C2CC2)nc(Nc2ccccc2)n1	µg/mL	=	2.838
COC(=O)Nc1nc2ccccc2[nH]1	µg/mL	>	50
Fc1ccc([C@]2(Cn3cncn3)O[C@H]2c2ccccc2Cl)cc1 (racemic)	µg/mL	=	0.145
N#Cc1c(Cl)c(Cl)c(Cl)c(C#N)c1Cl	µg/mL	=	0.369
CO/C=C(/C(=O)OC)c1ccccc1Oc1cc(Oc2ccccc2C#N)ncn1	µg/mL	=	6.914
